Give Ancestral Pseudovirus IC50 for every item shown.
- assayTarget: SARS-CoV-2 S of the Ancestral pseudovirus (pSARS-COV2-Strunc) (SARS-CoV-2 (ancestral), UniProt P0DTC2 14-1254)
- procedureSummary: cell-based or functional assay
# unit: µg/mL | format: bare number

The recorded Ancestral Pseudovirus IC50 for entry sd1.127 (antibody, V domains shown) VH: EVQLVESGGALVKPGGSLTLSCVASGFTFSHAWMTWVRQAPGKGLEWVGRIKTKTEGGTIDYAAPLRGRFTISRDDSKNTLYLRMNSLKIEDTAKYYCTTHSSPDYWGQGTLVTVSS VL: DIQMTQSPSSLSASIGDRVTITCRASQGIGNSLLWYQQKRGKVPKLLIYAASTLQSGVPSRFSGSGSGTDFTLTISSLQPEDVATYYCQRYNSAPLTFGGGTKVEIK equals 6.68

Record sd1.034 (antibody, V domains shown) VH: EVQLVESGGGVVQPGRSLRLSCAASGFSFSNYGMHWVRQAPGKGLEWVAVISYDGSHKSFADSVKGRFTISRDNSKNTLNLQMNSLRREDTAVYYCATDQGGSLGYWGQGTLVTVSS VL: QSALTQPASVSGSPGQSITISCTGTSGDVGGYNYVSWYQHHPGKAPKLMIYDVSNRPSGVSNRFSGSKSGNTASLTISGLQAEDEADYYCSSYTSTSTSWVFGGGTKLTVL . Reported Ancestral Pseudovirus IC50: 0.387

For this binder ( rbd.045 (antibody, V domains shown) VH: QVQLQESGPGLVKPSETLSLTCTVSGGAFRSFFWTWIRQPPGKGLEWIGNIYYSGSTNYNPSLKSRVTISQDMSENQFSLKLSSVTAADTAVYYCARSQWLRGNFDHWGQGILVTVSS VL: NFMLTQPHSVSESPGKTVTISCTATSGYIASNYVQWYQQRPGSAPTTVIYEDNQRPSGVPDRFSGSIDSSSNSASLTISGLKPEDEADYYCQSFDTAYAVFGGGTQLTVL ), measured Ancestral Pseudovirus IC50 is 0.00557

Ancestral Pseudovirus IC50 reported for this binder rbd.031 (antibody, V domains shown) VH: EVQLVESGGGVVQPGRSLRLSCAASGFTFKTYGMHWVRQAPGKGLEWVAVISYEGSNEYYAESVKGRFTISRDNSKNTLYLHMNSLRAEDTAVYYCAKGEYYYHSSTYYYLDYWGRGTLVTVSS VL: DIQMTQSPSTLSASVGDRVTITCRASQSISSWLAWYQQKPGKAPKVLIYDASSLQSGVPLRFSGSGSGTEFTLTISSLQPDDFATYYCQQYDTYWTFGQGTKVEIK : 0.862

The recorded Ancestral Pseudovirus IC50 for rbd.038 (antibody, V domains shown) VH: QVQLVQSGAEVKKPGASVKVSCKASGYTFSGYYMHWVRQAPGQGLEWVGWISPTSGGTKYAQKFQGRVTMTRDTSITTVYMELNRLRSDDTAVYYCAREPFPYCTSDICHSNYFYYYAMDVWGQGTTVTVSS VL: QSALTQPPSASGSPGQSVTISCTGSSSDLGDHNYVSWYQQHPGKAPKVMIYEVSKRPSGVPDRFSGSKSGNTASLTVSGLQAEDEADYYCSSYAGSLYVFGTGTKVTVL is 0.000552
